Sourced from patent US11505543B2

test system: recombinant NL4-3 virus (nef section replaced with Renilla luciferase gene) in MT-2 cells; test: HIV cell culture assay (antiviral activity, luciferase readout); assay type: cell-based; conditions: Renilla, NL43, MT-2 cells infected for 4-5 days with recombinant NL4-3 Renilla luciferase virus, serial dilutions of compound
Measured quantity: EC50 (nM)
Numbers only; they are read as nM.

Guide cases for EC50, answers given:
| Compound | Units | Quantitative result |
| --- | --- | --- |
| O=C(Cn1ccc(C2CC2)n1)N[C@@H](Cc1cc(F)cc(F)c1)c1nc2cc(-c3ccccc3Oc3ccccc3)ccc2c(=O)n1-c1ccc(S(=O)(=O)N2CCOCC2)cc1 | nM | 54 |
| Cn1nc(NS(C)(=O)=O)c2c(Cl)ccc(-n3c([C@H](Cc4cc(F)cc(F)c4)NC(=O)Cn4nc(C(F)F)c5c4C(F)(F)[C@@H]4C[C@H]54)nc4cc(-c5ccc(-c6ccccc6)cc5)ccc4c3=O)c21 (atropisomer, axis not shown; (aR)) | nM | 62 |
| CCS(=O)(=O)c1ccccc1-c1ccc2c(=O)n(-c3ccc(Cl)c4c(NS(C)(=O)=O)nn(C)c34)c([C@H](Cc3cc(F)cc(F)c3)NC(=O)Cn3nc(C(F)F)c4c3C(F)(F)[C@@H]3C[C@H]43)nc2c1 (atropisomer, axis not shown; (aR)) | nM | 0.1 |

Turning now to a further record.
[Q] Which EC50 is listed for COc1ccnc(-c2ccc3c(=O)n(-c4ccc(Cl)c5c(NS(C)(=O)=O)nn(C)c45)c([C@H](Cc4cc(F)cc(F)c4)NC(=O)Cn4nc(C(F)F)c5c4C(F)(F)[C@@H]4C[C@H]54)nc3c2)n1 (atropisomer, axis not shown; (aR)) ?
[A] 0.058
